EC50 values by entry
Target: human GPR40 (Homo sapiens)
Sequence (O14842 whole entry): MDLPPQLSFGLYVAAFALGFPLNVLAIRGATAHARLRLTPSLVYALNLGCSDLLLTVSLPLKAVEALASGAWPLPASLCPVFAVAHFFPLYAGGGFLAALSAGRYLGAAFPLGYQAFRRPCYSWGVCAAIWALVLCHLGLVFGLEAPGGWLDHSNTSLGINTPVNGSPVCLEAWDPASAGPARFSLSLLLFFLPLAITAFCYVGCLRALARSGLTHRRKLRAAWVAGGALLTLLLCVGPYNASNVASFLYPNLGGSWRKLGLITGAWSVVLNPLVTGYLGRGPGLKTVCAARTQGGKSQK
Test: Inositol phosphate (IP1) accumulation assay, CHO-K1 cells expressing human GPR40
Conditions: CHO hFFAR1 cells, IP1 HTRF, 90 min
PARAMETER_MEASURED: EC50

INSERT INTO measurements (molecule, test_system, reported_result) VALUES
  ('COc1ccc(F)c([C@H]2CC[C@H](COc3cccc([C@@H](C[P@@](C)(=O)O)C4CC4)c3)CC2)c1 (single isomer, unassigned)', 'human GPR40 (Homo sapiens)', '50 to 250 nM'),
  ('COc1ccc(F)c([C@H]2CC[C@H](COc3cccc([C@H](C[P@](C)(=O)O)C4CC4)c3)CC2)c1 (single isomer, unassigned)', 'human GPR40 (Homo sapiens)', '≤ 50 nM');

Just for reference, patent US20240115587A1 is where these values come from.
